Taken from ChEMBL document CHEMBL1909046.

Reported values of IC50 for individual entries
# Assay comment: DRUGMATRIX: Phosphodiesterase PDE3 enzyme inhibition (substrate: [3H]cAMP + cAMP)
# Assay type: tissue-based, Homo sapiens
# Stated conditions: platelet; Not Active = under 50% inhibition at 10 µM; read-out: IC50
// units = nM; emit number, no label

query: Value lookup for IC50; key = CN(CCOc1ccc(C[C@H](Nc2ccccc2C(=O)c2ccccc2)C(=O)O)cc1)c1ccccn1
result: 19400

query: Next record, please: Cc1[nH]c(=O)c(C#N)cc1-c1ccncc1 [MILRINONE]
result: 958

// next entry
query: Value lookup for IC50; key = O=C(OC[C@H]1O[C@@H](OC(=O)c2cc(O)c(O)c(OC(=O)c3cc(O)c(O)c(O)c3)c2)[C@H](OC(=O)c2cc(O)c(O)c(OC(=O)c3cc(O)c(O)c(O)c3)c2)[C@@H](OC(=O)c2cc(O)c(O)c(OC(=O)c3cc(O)c(O)c(O)c3)c2)[C@@H]1OC(=O)c1cc(O)c(O)c(OC(=O)c2cc(O)c(O)c(O)c2)c1)c1cc(O)c(O)c(OC(=O)c2cc(O)c(O)c(O)c2)c1 [TANNIC ACID]
result: 714
